The measurements presented in this section are drawn from ChEMBL document CHEMBL4819084.

Field: log10 of IC50. Provide a value for each of the compounds that follow.
# Target under test: Bromodomain-containing protein 4 (Homo sapiens, UniProt O60885)
# Assay notes: Inhibition of BRD4-BD1 (unknown origin) preincubated for 15 mins followed by substrate addition and measured after 1 hr
On a log10 scale: recorded IC50, unit nM.

Give the reported log10 of IC50 for this compound. Cc1noc(C)c1-c1ccc2c(c1)C(c1ccccc1)N(Cc1nnc(-c3ccccc3)s1)C(=O)N2C (stereo not given)
1.87

Give the reported log10 of IC50 for this compound. Cc1noc(C)c1-c1ccc2c(c1)C(c1ccccc1)N(CCCCCN1CCN(c3ccc4nnc(Cl)n4n3)CC1)C(=O)N2C (stereo not given)
0.94

Give the reported log10 of IC50 for this compound. Cc1noc(C)c1-c1ccc2c(c1)C(c1ccccc1)N(CCCCBr)C(=O)N2C (stereo not given)
1.11

Give the reported log10 of IC50 for this compound. Cc1noc(C)c1-c1ccc2c(c1)C(c1ccccc1)N(CCOCCN1CCN(c3ccc4nnc(Cl)n4n3)CC1)C(=O)N2C (stereo not given)
1.08

Give the reported log10 of IC50 for this compound. Cc1noc(C)c1-c1ccc2c(c1)C(c1ccccc1)N(Cc1ncc(-c3ccccc3)o1)C(=O)N2C (stereo not given)
2.02
